Sourced from patent US20240182456A1

assay_procedure: in vivo
run_parameters: male, C57BL/6, mouse, in vivo, iv, 1 mg/kg
property_measured: Vd

Reference set (2 entries):
C[C@]1(c2ccc(Cl)cc2F)Oc2cccc(C3CCN(Cc4nc(C(F)(F)F)c(/C=C/C(=O)O)n4C[C@@H]4CCO4)CC3)c2O1 [Compound 8] : 1.65 L/kg
C[C@]1(c2ccc(Cl)cc2F)Oc2cccc(C3CCN(Cc4nc5ccc(C(=O)O)cc5n4C[C@@H]4CCO4)CC3)c2O1 [compound 1, reference compound] : 2.13 L/kg

Now look at this one.
Value of measured Vd for the entry Cc1nc(CN2CCC(c3cccc4c3O[C@@](C)(c3ccc(Cl)cc3F)O4)CC2)n(C[C@@H]2CCO2)c1C(=O)O [Compound 3] : 0.903 L/kg

====

assay_procedure: in vivo
run_parameters: male, C57BL/6, mouse, in vivo, po, 3 mg/kg
Protocol: Blood concentration versus time profiles were obtained from 2 groups of 3 male mice. […] Bioanalysis: An aliquot of 10 μL of blood sample and matrix calibration standards were added to a 96-well plate. […] Samples were analyzed and quantified by LC-MS/MS using the conditions outlined below. […]
property_measured: AUC(0-inf) (µM·h)
Answers are plain numbers, in µM·h.

Reference set (2 entries):
C[C@]1(c2ccc(Cl)cc2F)Oc2cccc(C3CCN(Cc4nc5ccc(C(=O)O)cc5n4C[C@@H]4CCO4)CC3)c2O1 [compound 1, reference compound] : 1.98
C[C@]1(c2ccc(Cl)cc2F)Oc2cccc(C3CCN(Cc4nc(C(F)(F)F)c(/C=C/C(=O)O)n4C[C@@H]4CCO4)CC3)c2O1 : 6.86

Now look at this one.
Value of measured AUC(0-inf) for the entry Cc1nc(CN2CCC(c3cccc4c3O[C@@](C)(c3ccc(Cl)cc3F)O4)CC2)n(C[C@@H]2CCO2)c1C(=O)O : 3.74

====

Would you mind telling me the reported Emax of each entry?
study_system: human GLP1R (Homo sapiens)
Sequence (P43220 24-463): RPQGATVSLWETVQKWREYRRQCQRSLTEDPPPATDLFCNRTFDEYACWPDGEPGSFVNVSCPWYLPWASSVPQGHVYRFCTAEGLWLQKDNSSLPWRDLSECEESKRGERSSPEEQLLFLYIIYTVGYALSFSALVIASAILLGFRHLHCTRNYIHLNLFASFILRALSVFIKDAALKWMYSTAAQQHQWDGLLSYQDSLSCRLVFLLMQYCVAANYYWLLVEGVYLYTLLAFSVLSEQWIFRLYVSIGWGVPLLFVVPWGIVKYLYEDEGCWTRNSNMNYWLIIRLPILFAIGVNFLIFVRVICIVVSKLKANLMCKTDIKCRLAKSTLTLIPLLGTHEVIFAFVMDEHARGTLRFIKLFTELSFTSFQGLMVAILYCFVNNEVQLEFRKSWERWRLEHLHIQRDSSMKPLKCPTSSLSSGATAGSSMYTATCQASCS
assay_procedure: Human GLP1R DERET internalization assay
Type: cell-based
run_parameters: HEK293-SNAP-hGLP1R-GloSensor cells; relative to GLP1(7-36)
Give bare numbers, in %.

Reference set (6 entries):
Cc1c(-c2cncc(C(=O)O)c2)nc(CN2CCC(c3cccc4c3O[C@@](C)(c3ccc(Cl)cc3F)O4)CC2)n1C[C@@H]1CCO1 : 10
Cc1nc(CN2CCC(c3cccc4c3O[C@@](C)(c3ccc(Cl)cc3F)O4)CC2)n(C[C@@H]2CCO2)c1/C=C(\F)C(=O)O [Compound C-19b] : 27
C[C@]1(c2ccc(Cl)cc2F)Oc2cccc(C3CCN(Cc4nc(C(F)(F)F)c(-c5nc(=O)o[nH]5)n4C[C@@H]4CCO4)CC3)c2O1 : -6
C[C@]1(c2ccc(Cl)cc2F)Oc2cccc(C3CCN(Cc4nc(C(F)(F)F)c(/C=C/C(=O)O)n4C[C@@H]4CCO4)CC3)c2O1 : 9.5
Cc1nc(CN2CCC(c3cccc4c3O[C@@](C)(c3ccc(Cl)cc3F)O4)CC2)n(C[C@@H]2CCO2)c1C#CC(=O)O : 76
Cc1nc(CN2CCC(c3cccc4c3O[C@@](C)(c3ccc(Cl)cc3F)O4)CC2)n(C[C@@H]2CCO2)c1-c1nc(=O)o[nH]1 : 6

Record Emax per entry; entries follow.
1. Cc1c(-c2nc(=O)o[nH]2)nc(CN2CCC(c3cccc4c3O[C@@](C)(c3ccc(Cl)cc3F)O4)CC2)n1C[C@@H]1CCO1
2. Cc1nc(CN2CCC(c3cccc4c3O[C@@](C)(c3ccc(Cl)cc3F)O4)CC2)n(C[C@@H]2CCO2)c1/C=C/C(=O)O
3. Cc1c(/C=C/C(=O)O)nc(CN2CCC(c3cccc4c3O[C@@](C)(c3ccc(Cl)cc3F)O4)CC2)n1C[C@@H]1CCO1

Reply text:
[13, 58, 5]

Record Emax per entry; entries follow.
1. C[C@]1(c2ccc(Cl)cc2F)Oc2cccc(C3CCN(Cc4nc5ccc(C(=O)O)cc5n4C[C@@H]4CCO4)CC3)c2O1 [Reference compound, reference compound]
2. Cc1nc(CN2CCC(c3cccc4c3O[C@@](C)(c3ccc(Cl)cc3F)O4)CC2)n(C[C@@H]2CCO2)c1CC(F)C(=O)O (some centres unmarked)
3. C[C@]1(c2ccc(Cl)cc2F)Oc2cccc(C3CCN(Cc4nc(C(F)(F)F)c(C(=O)O)n4C[C@@H]4CCO4)CC3)c2O1

Reply text:
1. 87
2. 41
3. 3

Record Emax per entry; entries follow.
1. C[C@]1(c2ccc(Cl)cc2F)Oc2cccc(C3CCN(Cc4nc(/C=C/C(=O)O)cn4C[C@@H]4CCO4)CC3)c2O1
2. C[C@]1(c2ccc(Cl)cc2F)Oc2cccc(C3CCN(Cc4ncc(/C=C/C(=O)O)n4C[C@@H]4CCO4)CC3)c2O1

Reply text:
1. 5
2. 67
